System: Spleen
testProtocol: Biodistribution in ICR mouse spleen at 5 to 10 uCi, iv after 30 mins
Type: ADME, organism-based
statedConditions: in vivo, 0.5 h
Catalogue of Drug uptake values
Please give a number only; it is taken to be in % ID/g.

### Prompt Please provide the recorded Drug uptake for CN(C)c1ccc(-c2cn(-c3ccc(OCC[18F])cc3)nn2)cc1 , tested on Spleen.
### Response 2.21

### Prompt State its Drug uptake on Spleen: CNc1ccc(-c2cn(-c3ccc([125I])cc3)nn2)cc1
### Response 1.8

### Prompt # returns recorded Drug uptake (system: Spleen) for CN(C)c1ccc(-c2cn(-c3ccc(OCCC[18F])cc3)nn2)cc1
### Response 1.29

### Prompt What measured Drug uptake is associated with CN(C)c1ccc(-c2cn(-c3ccc([125I])cc3)nn2)cc1 on Spleen?
### Response 1.35

* * *

Entries and their Drug uptake values follow.
Tested on: Brain
testProtocol: Biodistribution in ICR mouse brain at 5 to 10 uCi, iv after 2 hrs
Assay type: ADME, organism-based
statedConditions: in vivo
# number only, unit % ID/g dropped from output

recordSmiles: CN(C)c1ccc(-c2cn(-c3ccc(OCC[18F])cc3)nn2)cc1
Drug uptake [% ID/g]: 2.08
--
recordSmiles: CN(C)c1ccc(-c2cn(-c3ccc(OCCC[18F])cc3)nn2)cc1
Drug uptake [% ID/g]: 1.29
--
recordSmiles: CNc1ccc(-c2cn(-c3ccc([125I])cc3)nn2)cc1
Drug uptake [% ID/g]: 0.43

Now consider a different molecule.
### Prompt Form field: reported Drug uptake of CN(C)c1ccc(-c2cn(-c3ccc([125I])cc3)nn2)cc1
### Response 0.29

* * *

Each entry below carries its reported Drug uptake.
Test system: Spleen
testProtocol: Biodistribution in ICR mouse spleen at 5 to 10 uCi, iv after 2 mins
Type: ADME, organism-based
statedConditions: in vivo
Express the result in % ID/g but write the number alone.

recordSmiles: CN(C)c1ccc(-c2cn(-c3ccc([125I])cc3)nn2)cc1
unitInfo: % ID/g
Drug uptake: 5.32

recordSmiles: CN(C)c1ccc(-c2cn(-c3ccc(OCC[18F])cc3)nn2)cc1
unitInfo: % ID/g
Drug uptake: 4.04

recordSmiles: CNc1ccc(-c2cn(-c3ccc([125I])cc3)nn2)cc1
unitInfo: % ID/g
Drug uptake: 4.9

Now look at this entry.
### Prompt Can you look up the measured Drug uptake of CN(C)c1ccc(-c2cn(-c3ccc(OCCC[18F])cc3)nn2)cc1 for me?
### Response 3.98

* * *

Listed here are compounds together with their documented logP.
testProtocol: Partition coefficient, log P of the compound
Format: physicochemical
statedConditions: octanol/water
Answer with a number only.

Use the examples below as a reference point.
recordSmiles: CN(C)c1ccc(-c2cn(-c3ccc(OCC[18F])cc3)nn2)cc1
logP: 2.7
//
recordSmiles: CN(C)c1ccc(-c2cn(-c3ccc(OCCC[18F])cc3)nn2)cc1
logP: 2.7
//
recordSmiles: CN(C)c1ccc(-c2cn(-c3ccc([125I])cc3)nn2)cc1
logP: 3.4

Okay, next one:
### Prompt logP for CNc1ccc(-c2cn(-c3ccc([125I])cc3)nn2)cc1 ?
### Response 3

* * *

Tested on: Liver
testProtocol: Biodistribution in ICR mouse liver at 5 to 10 uCi, iv after 1 hr
Assay type: ADME, organism-based
statedConditions: in vivo
readoutKind: Drug uptake (% ID/g)
Response body: numeric value in % ID/g, unit text excluded.

### Prompt Given the compound CN(C)c1ccc(-c2cn(-c3ccc([125I])cc3)nn2)cc1 , what is its reported Drug uptake?
### Response 3.74

### Prompt Which Drug uptake value is on record for CN(C)c1ccc(-c2cn(-c3ccc(OCC[18F])cc3)nn2)cc1 ?
### Response 3.52

### Prompt Name the reported Drug uptake value associated with the compound CN(C)c1ccc(-c2cn(-c3ccc(OCCC[18F])cc3)nn2)cc1
### Response 2.06

### Prompt // Drug uptake lookup, key: CNc1ccc(-c2cn(-c3ccc([125I])cc3)nn2)cc1
### Response 6.46

* * *

System: Heart
testProtocol: Biodistribution in ICR mouse heart at 5 to 10 uCi, iv after 1 hr
Assay type: ADME, organism-based
statedConditions: in vivo
readoutKind: Drug uptake (% ID/g)
Numeric only. Scale: % ID/g

Worked examples, 3 compounds total:
recordSmiles: CN(C)c1ccc(-c2cn(-c3ccc(OCC[18F])cc3)nn2)cc1
tgt: Heart
Drug uptake / % ID/g: 2.02

recordSmiles: CN(C)c1ccc(-c2cn(-c3ccc(OCCC[18F])cc3)nn2)cc1
tgt: Heart
Drug uptake / % ID/g: 0.69

recordSmiles: CNc1ccc(-c2cn(-c3ccc([125I])cc3)nn2)cc1
tgt: Heart
Drug uptake / % ID/g: 1.1

API: the following record is the query input.
### Prompt Given the entry CN(C)c1ccc(-c2cn(-c3ccc([125I])cc3)nn2)cc1 , report its measured Drug uptake.
### Response 0.78

* * *

System: Liver
testProtocol: Biodistribution in ICR mouse liver at 5 to 10 uCi, iv after 30 mins
Format: ADME, organism-based
statedConditions: in vivo, 0.5 h
Entries and their Drug uptake values follow.
Record the result as a number with its unit.

Please review the following examples before continuing.
recordSmiles: CNc1ccc(-c2cn(-c3ccc([125I])cc3)nn2)cc1
Drug uptake: 11.1 % ID/g
--
recordSmiles: CN(C)c1ccc(-c2cn(-c3ccc(OCCC[18F])cc3)nn2)cc1
Drug uptake: 5.06 % ID/g
--
recordSmiles: CN(C)c1ccc(-c2cn(-c3ccc(OCC[18F])cc3)nn2)cc1
Drug uptake: 5.54 % ID/g

Let's switch to this compound now.
### Prompt So what's the measured Drug uptake for this one? CN(C)c1ccc(-c2cn(-c3ccc([125I])cc3)nn2)cc1
### Response 6.93 % ID/g

* * *

Tested on: Zone of skin
testProtocol: Biodistribution in ICR mouse skin at 5 to 10 uCi, iv after 1 hr
Format: ADME, organism-based
statedConditions: in vivo
Item-by-item account of Drug uptake
# value in % ID/g; strip the unit string

recordSmiles: CN(C)c1ccc(-c2cn(-c3ccc([125I])cc3)nn2)cc1
unitInfo: % ID/g
Drug uptake: 1.93

recordSmiles: CN(C)c1ccc(-c2cn(-c3ccc(OCC[18F])cc3)nn2)cc1
unitInfo: % ID/g
Drug uptake: 1.72

recordSmiles: CNc1ccc(-c2cn(-c3ccc([125I])cc3)nn2)cc1
unitInfo: % ID/g
Drug uptake: 1.81

Now let's try a different one.
### Prompt Item CN(C)c1ccc(-c2cn(-c3ccc(OCCC[18F])cc3)nn2)cc1 has what recorded Drug uptake?
### Response 0.41

* * *

System: Zone of skin
testProtocol: Biodistribution in ICR mouse skin at 5 to 10 uCi, iv after 30 mins
Format: ADME, organism-based
statedConditions: in vivo, 0.5 h
Readings of Drug uptake for the listed compounds
Give the number first and the unit second.

### Prompt Look at this compound and give its reported Drug uptake. CN(C)c1ccc(-c2cn(-c3ccc([125I])cc3)nn2)cc1
### Response 2.2 % ID/g

### Prompt Using the record for CNc1ccc(-c2cn(-c3ccc([125I])cc3)nn2)cc1 , report its Drug uptake.
### Response 2.34 % ID/g

### Prompt Entry CN(C)c1ccc(-c2cn(-c3ccc(OCCC[18F])cc3)nn2)cc1 : reported Drug uptake = ?
### Response 1.41 % ID/g

### Prompt Consider the compound shown here: CN(C)c1ccc(-c2cn(-c3ccc(OCC[18F])cc3)nn2)cc1 What is its recorded Drug uptake?
### Response 1.82 % ID/g

* * *

testProtocol: Displacement of [125I]IMPY from beta amyloid protein plaques in Alzheimer's disease patient brain
Set-up: species or system Homo sapiens
Recorded pKi for the following molecules
Keep it numeric: pKi is minus log10 of the concentration in mol/L.

# annotated cases, reported pKi shown
recordSmiles: CN(C)c1ccc(-c2cn(-c3ccc(I)cc3)nn2)cc1
numericValue: 8.10

recordSmiles: CN(C)c1ccc(-c2cn(-c3ccc(OCCOCCOCCF)cc3)nn2)cc1
numericValue: 8.08

recordSmiles: CN(C)c1ccc(-c2cn(-c3ccc(OCCF)cc3)nn2)cc1
numericValue: 8.30

recordSmiles: CNc1ccc(-c2cn(-c3ccc(OCCOCCOCCF)cc3)nn2)cc1
numericValue: 7.52

### Prompt Given the molecule CN(C)c1ccc(-c2cn(-c3ccc(OCCOCCOCCO)cc3)nn2)cc1 , what is its reported pKi?
### Response 7.78

### Prompt Name the reported pKi value associated with the molecule CN(C)c1ccc(-c2cn(-c3ccc(OCCO)cc3)nn2)cc1
### Response 8.00

* * *

System: Zone of skin
testProtocol: Biodistribution in ICR mouse skin at 5 to 10 uCi, iv after 2 hrs
Format: ADME, organism-based
statedConditions: in vivo
readoutKind: Drug uptake (% ID/g)
Value expressed in % ID/g; do not type the unit.

recordSmiles: CN(C)c1ccc(-c2cn(-c3ccc(OCCC[18F])cc3)nn2)cc1
Drug uptake (% ID/g): 0.11
--
recordSmiles: CN(C)c1ccc(-c2cn(-c3ccc(OCC[18F])cc3)nn2)cc1
Drug uptake (% ID/g): 1.42
--
recordSmiles: CN(C)c1ccc(-c2cn(-c3ccc([125I])cc3)nn2)cc1
Drug uptake (% ID/g): 1.19

Next up:
### Prompt I have this compound here, CNc1ccc(-c2cn(-c3ccc([125I])cc3)nn2)cc1 , and I need its recorded Drug uptake.
### Response 1.6
